Tested on: 5α-reductase
Assay: 5α-reductase inhibitory efficacy: DHT produced in testosterone-stimulated dermal papilla cells (DHT ELISA)
Assay type: cell-based
Details: sample concentration 50 μg/ml, 50 nM testosterone, 24 hours, produced DHT relative to control
Each entry below lists one item and its recorded 5α-reductase inhibitory rate (%) value.
Only the number, expressed in %, is required.

Use the examples below as a reference point.
[[record]]
compound = "CCCCCCCCOC1CCC2(C)C(=CCC3C2CCC2(C)C(C(C)CCC(C)C(C)C)CCC32)C1 (centres unmarked) [Compound in Example 70, O-octyl-campesterol]"
target_of_assay = "5α-reductase"
obs_value = 51

[[record]]
compound = "C[C@H]1[C@H](C)CC[C@]2(C)CC[C@]3(C)C(=CC[C@@H]4[C@@]5(C)CC[C@@H](O)[C@](C)(C(=O)O)[C@@H]5CC[C@]43C)[C@H]12 [Compound in Example 29, β-boswellic acid]"
target_of_assay = "5α-reductase"
obs_value = 23

[[record]]
compound = "CCCCCCCCCCCCCCCCCC(=O)O[C@H]1CC[C@@]2(C)C(=CC[C@H]3[C@@H]4CC[C@H]([C@H](C)CCCC(C)C)[C@@]4(C)CC[C@@H]32)C1 [Compound in Example 41, cholesterol stearate]"
target_of_assay = "5α-reductase"
obs_value = 39

[[record]]
compound = "C[C@H]1[C@H](C)CC[C@]2(C)CC[C@]3(C)C(=CC[C@@H]4[C@@]5(C)CC[C@H](O)C(C)(C)[C@@H]5CC[C@]43C)[C@H]12 [Compound in Example 10, α-amyrin]"
target_of_assay = "5α-reductase"
obs_value = 29

[[record]]
compound = "CCCCCCCCOC1CCC2(C)C(CCC3(C)C2CC=C2C4CC(C)(C)CCC4(C)CCC23C)C1(C)C(=O)O (stereo not drawn) [Compound in Example 63, O-octyl-α-boswellic acid]"
target_of_assay = "5α-reductase"
obs_value = 34

[[record]]
compound = "CCCCCCCCOC1CCC2(C)C(CCC3(C)C2CC=C2C4C(C)C(C)CCC4(C(=O)O)CCC23C)C1(C)C (centres unmarked) [Compound in Example 59, O-octyl-ursolic acid]"
target_of_assay = "5α-reductase"
obs_value = 41

[[record]]
compound = "CC[C@H](/C=C/[C@@H](C)[C@H]1CC[C@H]2[C@@H]3CC=C4C[C@@H](O)CC[C@]4(C)[C@H]3CC[C@]12C)C(C)C [Compound in Example 42, Stigmasterol]"
target_of_assay = "5α-reductase"
obs_value = 24


Incoming: For the compound shown here, C=C(C)[C@@H]1CC[C@]2(C(=O)O)CC[C@]3(C)[C@H](CC[C@@H]4[C@@]5(C)CC[C@H](O)C(C)(C)[C@@H]5CC[C@]43C)[C@@H]12 [Compound in Example 32, betulinic acid] , give the reported 5α-reductase inhibitory rate (%).
Outgoing: 17
